Target: human TLR8 (Homo sapiens)
Construct: host or cells: HEK-Blue cells
Sequence (Q9NR97 27-1041): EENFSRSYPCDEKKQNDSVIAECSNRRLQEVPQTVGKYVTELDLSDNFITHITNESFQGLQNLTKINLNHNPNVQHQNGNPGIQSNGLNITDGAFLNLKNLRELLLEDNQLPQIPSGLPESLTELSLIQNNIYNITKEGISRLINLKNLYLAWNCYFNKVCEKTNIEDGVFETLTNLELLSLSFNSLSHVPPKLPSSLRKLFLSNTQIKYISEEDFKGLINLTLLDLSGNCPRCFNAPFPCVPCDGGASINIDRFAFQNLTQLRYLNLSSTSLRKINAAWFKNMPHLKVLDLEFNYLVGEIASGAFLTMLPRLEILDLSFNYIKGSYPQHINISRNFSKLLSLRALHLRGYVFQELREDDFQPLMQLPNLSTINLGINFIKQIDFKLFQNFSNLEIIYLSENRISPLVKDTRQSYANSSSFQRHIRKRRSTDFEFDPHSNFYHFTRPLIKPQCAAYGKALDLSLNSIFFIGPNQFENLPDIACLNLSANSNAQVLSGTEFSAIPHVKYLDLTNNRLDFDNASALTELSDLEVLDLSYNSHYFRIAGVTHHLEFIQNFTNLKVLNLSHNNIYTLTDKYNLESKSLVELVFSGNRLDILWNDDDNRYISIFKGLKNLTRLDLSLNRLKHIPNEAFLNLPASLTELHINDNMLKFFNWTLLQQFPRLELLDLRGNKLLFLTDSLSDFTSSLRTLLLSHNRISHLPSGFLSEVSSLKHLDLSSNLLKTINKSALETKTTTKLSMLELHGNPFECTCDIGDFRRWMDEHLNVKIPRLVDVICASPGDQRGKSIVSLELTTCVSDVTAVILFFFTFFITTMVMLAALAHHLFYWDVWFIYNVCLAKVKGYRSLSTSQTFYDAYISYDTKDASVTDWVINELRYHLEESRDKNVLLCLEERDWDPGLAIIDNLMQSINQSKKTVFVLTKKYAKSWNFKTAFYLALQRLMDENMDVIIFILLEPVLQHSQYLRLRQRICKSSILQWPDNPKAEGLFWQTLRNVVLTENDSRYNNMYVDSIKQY
Experiment: TLR8 inhibition reporter assay (HEK-Blue cells, SEAP reporter, R848 stimulation)
Assay type: cell-based
Settings: HEK-Blue cells overexpressing human TLR8, SEAP reporter, R848 15.9 μM
pIC50: −log10 of the molar value.
quantity measured: pIC50

// solved cases for pIC50 follow
{"compound": "Cc1cc(-c2[nH]c3ccc(C4CN5CCC4CC5)cc3c2C(C)C)cc(C)n1 (single isomer, unassigned) [Example 363]", "test system": "human TLR8 (Homo sapiens)", "pIC50": 8.28}
{"compound": "COc1cc(-c2[nH]c3ccc(C4CCCN(C(C)C)C4)cc3c2C(C)C)cn2ncnc12 (single isomer, unassigned) [Example 239]", "test system": "human TLR8 (Homo sapiens)", "pIC50": 8.52}
{"compound": "COc1cc(-c2[nH]c3ccc(C4CCC(N(C)CCC(F)(F)F)CC4)cc3c2C(C)C)cn2ncnc12 (stereo not shown) [Example 75]", "test system": "human TLR8 (Homo sapiens)", "pIC50": 8.70}
{"compound": "CNC(=O)CN1CCOC(c2ccc3[nH]c(-c4cn5ncnc5c(C)c4C)c(C(C)C)c3c2)C1 (stereo not shown) [Example 313]", "test system": "human TLR8 (Homo sapiens)", "pIC50": 7.22}
{"compound": "Cc1cc(-c2[nH]c3ccc(C4CCC(N5CCOCC5)CC4)cc3c2C(C)C)cc(C)n1 (stereo not shown) [Example 54]", "test system": "human TLR8 (Homo sapiens)", "pIC50": 8.48}
{"compound": "COc1cc(-c2[nH]c3ccc(C4CCC(N(C)CC(F)F)CC4)cc3c2C(C)C)cn2ncnc12 (stereo not shown) [Example 74]", "test system": "human TLR8 (Homo sapiens)", "pIC50": 7.89}
{"compound": "COc1cc(-c2[nH]c3ccc(C4CCC(N5CCC[C@H]5C(N)=O)CC4)cc3c2C(C)C)cn2ncnc12 (stereo partly shown) [Example 31]", "test system": "human TLR8 (Homo sapiens)", "pIC50": 8.21}
{"compound": "Cc1c(-c2[nH]c3ccc(C4CN(C5CCOCC5)C4)cc3c2C(C)C)cn(C)c(=O)c1C", "test system": "human TLR8 (Homo sapiens)", "pIC50": 7.57}

[I] CNC(=O)CN1CC(c2ccc3[nH]c(-c4cn5ncnc5c(C)c4C)c(C(C)C)c3c2)OCC1(C)C (stereo not shown) [Example 389]
[II] Cc1c(-c2[nH]c3ccc(C4CC(N)C4)cc3c2C(C)C)cn2ncnc2c1C (stereo not shown) [Example 541]
[III] COc1cc(-c2[nH]c3ccc(C4CCC(NC5(C)CC5)CC4)cc3c2C(C)C)cn2ncnc12 (stereo not shown) [Example 43]
[IV] COc1cc(-c2[nH]c3ccc(C4CN(C)CCO4)cc3c2C(C)C)cn2ncnc12 (stereo not shown) [Example 299]
[V] COc1cc(-c2[nH]c3ccc(C4CCCNC4)cc3c2C(C)C)cn2ncnc12 (single isomer, unassigned) [Example 182]
Order field: pIC50 | Direction: descending (largest first) Form entry: labels listed in requested order. II, IV, V, III, I

[I] Cc1cc(-c2[nH]c3ccc(CCN4CCS(=O)(=O)CC4)cc3c2C(C)C)cn(C)c1=O
[II] Cc1c(-c2[nH]c3ccc(C4CC(N(C)C)C4)cc3c2C(C)C)cn2ncnc2c1C (stereo not shown)
Smaller pIC50 value, I vs II ? Kindly give the label for the entry you pick. I
